Values from paper PMC5540273

Tested on: RIPK4
run_conditions: concentration: 1 μM, replicates: in singlicate; n = 1
quantity_kind: %Inh (%)
Answers are plain numbers, in %.

- compound: "N#Cc1c(N2CCOCC2)sc(-c2ccn[nH]2)c1-c1ccc(Cl)cc1"
  experimental_target: "RIPK4"
  %Inh (%): 35
- compound: "Cc1cccc(-c2nc(-c3ccc(S(C)(=O)=O)cc3)sc2-c2ccncc2)c1"
  experimental_target: "RIPK4"
  %Inh (%): 0
- compound: "CSc1ccc(-c2cc3ncnc(SCC(=O)O)c3s2)cc1"
  experimental_target: "RIPK4"
  %Inh (%): 0
- compound: "COc1ccc(Nc2nccc(N3CCC(NC(=O)Nc4cc(C)ccc4C)C3)n2)cc1 (stereo not drawn)"
  experimental_target: "RIPK4"
  %Inh (%): 8
- compound: "Cl.Nc1ncnc2occ(-c3ccc(NC(=O)Nc4cc(C(F)(F)F)ccc4F)cc3)c12"
  experimental_target: "RIPK4"
  %Inh (%): 2
- compound: "CN(C1=C(c2ccccc2)C(=O)NC1=O)c1ccccc1"
  experimental_target: "RIPK4"
  %Inh (%): 20

Provide %Inh values for the following items, in order.
1. CN1c2ccc(NCc3ccc(F)cc3)cc2-c2c(cnn2C)S1(=O)=O
2. COc1cc2c(cc1OCCN1CCN(C)CC1)ncc1c3ccc(C#N)cc3[nH]c21
3. Cn1cc(-c2ccc3c(c2)CCN3C(=O)Cc2ccccc2Cl)c2c(N)ncnc21
4. O=C1Cc2cc(Nc3nc(NCc4cccc(S(=O)(=O)C(F)(F)F)c4)ncc3C(F)(F)F)ccc2N1
5. COc1ccc(S(=O)(=O)NC2CCN(c3cc(C)nc(Nc4cccc(C#N)c4)n3)CC2)cc1.O=C(O)C(F)(F)F
6. Cc1c(Cn2c(C)nn3c(=O)cc(N4CCOC(C)C4)nc23)cccc1C(F)(F)F (stereo not drawn)

1: 0; 2: 15; 3: 0; 4: 0; 5: 0; 6: 7

Could you report %Inh for every entry in the following list?
1. NS(=O)(=O)c1cccc(-c2ccc3nccc(-c4cccc(S(N)(=O)=O)c4)c3c2)c1
2. Cn1ccc2ncnc(Oc3ccc(NC(=O)Nc4ccncc4)c(Cl)c3)c21
3. O=c1cc(N2CCOCC2)nc2n(Cc3cccc(F)c3)ccn12
4. O=c1cc(N2CCOCC2)nc2n(Cc3cccc4ccccc34)ccn12
5. CCc1ccnc(/C=C/c2n[nH]c3cc(Sc4ccccc4C(=O)NC)ccc23)c1
6. O=C(NCCNc1ccnc(Nc2ccc(F)cc2)n1)Nc1ccccc1F

0
0
0
0
0
11

----------
System: ROCK2
run_conditions: concentration: 1 μM, replicates: in singlicate; n = 1
quantity_kind: %Inh (%)
Answers are plain numbers, in %.

- compound: "Fc1ccc(-c2ncn(CCCN3CCOCC3)c2-c2ccccn2)cc1 [SB-211742]"
  quantity_kind: "%Inh"
  measured_number: 0
- compound: "c1ccc(-c2n[nH]cc2-c2ccnc3ccccc23)nc1 [GW271431]"
  quantity_kind: "%Inh"
  measured_number: 0
- compound: "CCc1ccnc(/C=C/c2n[nH]c3cc(Sc4ccccc4C(=O)NC)ccc23)c1"
  quantity_kind: "%Inh"
  measured_number: 0
- compound: "Cc1ccc(NC(=O)c2ccnc(N3CCN(C)CC3)c2)cc1-c1ccc(C(=O)NCC2CC2)cc1 [GW775604]"
  quantity_kind: "%Inh"
  measured_number: 0
- compound: "Cc1cccc(Cn2ccn3c(=O)cc(N4CCOCC4)nc23)c1 [GSK2297542]"
  quantity_kind: "%Inh"
  measured_number: 27
- compound: "COc1ccc(Nc2nccc(N3CCC(NC(=O)Nc4cc(C)ccc4C)C3)n2)cc1 (stereo not drawn) [GSK1379741]"
  quantity_kind: "%Inh"
  measured_number: 0
- compound: "COc1cc2ncn(-c3cc(OCc4sccc4Cl)c(C(N)=O)s3)c2cc1OC [GSK448459]"
  quantity_kind: "%Inh"
  measured_number: 23
- compound: "NCCNS(=O)(=O)c1ccc(-c2ccnc3[nH]ccc23)cc1 [GSK977617]"
  quantity_kind: "%Inh"
  measured_number: 99.8

Below are some compounds; for each one, tell me its %Inh.
1. O=C1Cc2cc(Nc3nc(NCc4cccc(S(=O)(=O)C(F)(F)F)c4)ncc3C(F)(F)F)ccc2N1
2. O=C(Nc1n[nH]c2cc(-c3cccc(F)c3)ccc12)C1CC1 [SB-735464]
3. CC(C)Oc1ccc2c(-c3ccnc(Nc4ccc(N5CCN(C)CC5)cc4)n3)cnn2n1 [GW696155]
4. NS(=O)(=O)CCc1cccc(Nc2nccc(-c3c(-c4cccc(NC(=O)c5c(F)cccc5F)c4)nn4ccccc34)n2)c1 [GSK336735]
5. NS(=O)(=O)c1cccc(-c2ccc3ncc(N4CCOCC4)nc3c2)c1 [GSK1535721]
6. Cc1ccc(C(=O)NCC(N)=O)cc1-n1c(C)cc(OCc2ccc(F)cc2F)c(Br)c1=O
7. CC(C)(C)n1cnc2c(N)ncnc21 [SKF-97359]
8. COCCNC(=O)c1ccc(-c2cc(C(=O)NC3CC3)cc(F)c2C)cc1 [GW868318]

13
4
99.7
0
0
0
33
47

I have 2 compounds here; please give me %Inh for each one.
1. Cc1nnc(-c2ccc(C)c(-c3ccc(C(=O)Nc4ccc(NS(C)(=O)=O)cc4)cc3)c2)o1 [GW702865]
2. CN(C1=C(c2ccccc2)C(=O)NC1=O)c1ccccc1 [SB-334860]

[11, 0]

----------
Tested on: RIPK1
run_conditions: concentration: 1 μM, replicates: in singlicate; n = 1
Kindly supply the reported %Inh values for the records listed here.
Give bare numbers, in %.

- input_smiles: "CC(=O)Nc1ccc(COc2ccc(Nc3ccnc4cc(-c5ccccn5)ccc34)cc2)cc1.Cl"
  %Inh / %: 22
- input_smiles: "O=C(NCCNc1ccnc(Nc2ccc(F)cc2)n1)c1cc2ccccc2s1"
  %Inh / %: 0

Entry under review: Cn1ccc2ncnc(Oc3ccc(NC(=O)Nc4ccncc4)c(Cl)c3)c21 . Reported %Inh?
0

----------
Tested on: STK39
run_conditions: concentration: 1 μM, replicates: in singlicate; n = 1
%Inh below 7% gives rule not met; %Inh at or above it gives rule met.

- compound: "[2H]C([2H])(c1cccc(C(F)(F)F)c1C)n1ccn2c(=O)nc(N3CCOCC3)cc12"
  discrete_label: "rule not met"
- compound: "NS(=O)(=O)CCc1cccc(Nc2nccc(-c3c(-c4cccc(NC(=O)c5c(F)cccc5F)c4)nn4ccccc34)n2)c1"
  discrete_label: "rule not met"

Identify whether the reported %Inh of the following compound is 7% or greater: NS(=O)(=O)c1cccc(-c2ccc3ncc(N4CCOCC4)nc3c2)c1
rule not met

Check the entry Fc1ccc(-c2ncn(CCCN3CCOCC3)c2-c2ccccn2)cc1 : does %Inh equal or exceed 7%?
rule not met

Check this compound for %Inh at or above 7%: Cc1cccc(Cn2ccn3c(=O)cc(N4CCOCC4)nc23)c1
rule not met

Please tell me: is the compound Cc1cccc(-c2nc(Nc3ccc4ncsc4c3)c3ccccc3n2)n1 at or over 7% in terms of %Inh?
rule not met

Determine whether measured %Inh meets or exceeds 7% for CN1c2ccc(CNc3ccc(F)cc3)cc2-c2c(cnn2C)S1(=O)=O
rule not met

Check the entry Cl.Nc1ncnc2occ(-c3ccc(NC(=O)Nc4cc(C(F)(F)F)ccc4F)cc3)c12 : does %Inh equal or exceed 7%?
rule met

Say whether COc1cc2c(cc1OC[C@@H](O)CO)ncc1c3ccc(C#N)cc3[nH]c21 shows %Inh of 7% or more.
rule not met

Given the entry COc1cc2ncn(-c3cc(OCc4sccc4Cl)c(C(N)=O)s3)c2cc1OC , answer whether its %Inh meets or surpasses 7%.
rule not met

----------
System: HIPK3
run_conditions: concentration: 1 μM, replicates: in singlicate; n = 1
With a cut-off of 4%, any %Inh strictly below it is called Fulfilled; any %Inh meeting it or above is called Not fulfilled.

%Inh under 4%? Item: CN1c2ccc(CNc3ccc(F)cc3)cc2-c2c(cnn2C)S1(=O)=O
Fulfilled

Does the reported %Inh of Fc1ccc(-c2ncn(CCCN3CCOCC3)c2-c2cccnc2)cc1 [SB-211743] stay below 4%?
Not fulfilled

----------
Tested on: p38-alpha;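 further: kd values determined as follow-up on hits from a single-replicate KINOMEscan panel screen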
Construct: gene MAPK14
quantity_kind: pKd
Give bare numbers, as −log10 of the molar value.

Previously resolved entries follow.
- input_smiles: "Cc1ccc(C(=O)NCC(N)=O)cc1-n1c(C)cc(OCc2ccc(F)cc2F)c(Br)c1=O"
  quantity_kind: "pKd"
  measured_number: 9.64
- input_smiles: "Cc1cccc(-c2nc(-c3ccc(S(C)(=O)=O)cc3)sc2-c2ccncc2)c1"
  quantity_kind: "pKd"
  measured_number: 6.27

Here's the next entry for you.
Item COCCNC(=O)c1ccc(-c2cc(C(=O)NC3CC3)cc(F)c2C)cc1 has what recorded pKd?
8.14

----------
System: BRSK1
run_conditions: concentration: 1 μM, replicates: in singlicate; n = 1
quantity_kind: %Inh
Please answer using the number first and the unit second.

- molecule: "NS(=O)(=O)c1cccc(-c2ccc3ncc(N4CCOCC4)nc3c2)c1"
  result: "0%"
- molecule: "COc1ccc(COc2cc(-n3cnc4ccccc43)sc2C(N)=O)cc1"
  result: "0%"
- molecule: "Cl.Oc1cccc(Nc2ccnc3cc(-c4ccncc4)ccc23)c1"
  result: "14%"
- molecule: "CN(C(=O)c1ccc(-c2cc(-c3c[nH]nc3-c3ccccn3)ccn2)cc1)C1CCOCC1"
  result: "3%"

Record %Inh per entry; entries follow.
1. NCC(NC(=O)c1cc(-c2cn[nH]c2)c(-c2ccnc3[nH]ccc23)s1)c1ccccc1.O=C(O)C(F)(F)F.O=C(O)C(F)(F)F (stereo not shown)
2. NS(=O)(=O)c1cccc(-c2ccc3nccc(-c4cccc(S(N)(=O)=O)c4)c3c2)c1
3. c1ccc(-c2n[nH]cc2-c2ccnc3ccccc23)nc1
4. O=C(Nc1cccc(-c2nn3ncccc3c2-c2ccnc(Nc3cccc(C(F)(F)F)c3)n2)c1)c1c(F)cccc1F
5. Cc1cccc(Cn2ccn3c(=O)cc(N4CCOCC4)nc23)c1
6. CC(C)Oc1ccc2c(-c3ccnc(Nc4ccc(N5CCN(C)CC5)cc4)n3)cnn2n1
7. O=C(NCCNc1ccnc(Nc2ccc(F)cc2)n1)c1cc2ccccc2s1

["30%", "0%", "0%", "0%", "0%", "0%", "0%"]
